- TEST DETAILS: Volume of distribution at steady state in mouse at 1 mg/kg, iv and 2 mg/kg, po
- Format: ADME, organism-based
- CONDITION NOTES: in vivo, read-out: Vdss
MEASUREMENT NAME: Vd

Lab note: `COc1ccc2cc(-c3cc(-c4cc(Cl)cc(Cl)c4)nn3[C@@H](C)c3ccc(C(=O)NCCC(=O)O)cc3)ccc2c1` gave Vd of 1.6 L/kg

---

- TEST DETAILS: Plasma clearance in rat at 2 mg/kg, iv and 2 mg/kg, po
- Format: ADME, organism-based
MEASUREMENT NAME: clearance (mL/min/kg)
Numbers only, in mL/min/kg.

Measured clearance, `COc1ccc2cc(-c3cc(-c4cc(Cl)cc(Cl)c4)nn3[C@@H](C)c3ccc(C(=O)NCCC(=O)O)cc3)ccc2c1` : 7.5

---

- TEST DETAILS: Oral bioavailability in dog at 0.5 mg/kg
- Format: ADME, organism-based, Canis lupus familiaris
- CONDITION NOTES: in vivo
MEASUREMENT NAME: bioavailability (%)
Numbers only, in %.

What the record says about `COc1ccc2cc(-c3cc(-c4cc(Cl)cc(Cl)c4)nn3[C@@H](C)c3ccc(C(=O)NCCC(=O)O)cc3)ccc2c1` : bioavailability is 43

---

- TEST DETAILS: Elimination half life in monkey at 0.5 mg/kg, iv and 2 mg/kg, po
- Format: ADME, organism-based, Macaca mulatta
- CONDITION NOTES: rhesus monkey, in vivo; read-out: beta t1/2 (converted)
MEASUREMENT NAME: half-life (h)
Give bare numbers, in h.

Data point: `COc1ccc2cc(-c3cc(-c4cc(Cl)cc(Cl)c4)nn3[C@@H](C)c3ccc(C(=O)NCCC(=O)O)cc3)ccc2c1` ; half-life = 5.7

---

- TEST DETAILS: Plasma protein binding in dog
- Assay type: ADME, cell-free, Canis lupus familiaris
- CONDITION NOTES: read-out: PPB
MEASUREMENT NAME: fraction unbound

# fraction unbound (compound: `COc1ccc2cc(-c3cc(-c4cc(Cl)cc(Cl)c4)nn3[C@@H](C)c3ccc(C(=O)NCCC(=O)O)cc3)ccc2c1` ) is < 0.01

---

Consider the following compounds; for each one, report its log10 of IC50.
- TARGET OR TEST SYSTEM: Gastric inhibitory polypeptide receptor (Homo sapiens, UniProt P48546)
- Sequence (P48546 whole entry): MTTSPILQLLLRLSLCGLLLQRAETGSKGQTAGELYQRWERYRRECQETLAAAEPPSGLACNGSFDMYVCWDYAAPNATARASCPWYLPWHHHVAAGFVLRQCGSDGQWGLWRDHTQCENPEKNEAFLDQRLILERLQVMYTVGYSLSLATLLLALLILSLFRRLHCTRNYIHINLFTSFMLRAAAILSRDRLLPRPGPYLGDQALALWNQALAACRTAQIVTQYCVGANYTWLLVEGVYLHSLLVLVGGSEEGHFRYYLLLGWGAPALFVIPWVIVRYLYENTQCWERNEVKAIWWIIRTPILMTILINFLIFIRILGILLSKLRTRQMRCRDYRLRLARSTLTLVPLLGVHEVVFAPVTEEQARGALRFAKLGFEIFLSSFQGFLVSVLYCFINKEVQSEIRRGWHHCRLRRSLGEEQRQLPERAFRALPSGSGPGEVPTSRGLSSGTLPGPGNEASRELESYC
- TEST DETAILS: Antagonist activity at human GIPR expressed in CHO cells assessed as inhibition of glucagon-induced cAMP accumulation preincubated for 30 mins prior to glucagon challenge measured after 30 mins post glucagon challenge by liquid scintillation counter
Hi team, quick reminder: these entries are log10 of IC50 (nM).

Some solved entries appear below for comparison.
CCCOc1ccc(-c2cc(-c3cc(Cl)cc(Cl)c3)nn2C(C)c2ccc(C(=O)NCCC(=O)O)cc2)cc1Cl (stereo unspecified) | 2.68
CC(C)c1ccc2cc(-c3cc(-c4cc(Cl)cc(Cl)c4)nn3[C@@H](C)c3ccc(C(=O)NCCC(=O)O)cc3)ccc2c1 | 2.63
COc1ccc2cc(-c3cc(-c4cc(Cl)cc(C(F)(F)F)c4)nn3[C@@H](C)c3ccc(C(=O)NCCC(=O)O)cc3)ccc2c1 | 3.13
O=C(O)CCNC(=O)c1ccc(Cn2nc(-c3cc(Cl)cc(Cl)c3)cc2-c2ccc3cc(OC(F)(F)F)ccc3c2)cc1 | 2.85

I need log10 of IC50 for every entry listed below, if you could help.
1. COc1ccc2cc(-c3cc(-c4ccc(Cl)c(Cl)c4)nn3[C@@H](C)c3ccc(C(=O)NCCC(=O)O)cc3)ccc2c1
2. COc1ccc2cc(-c3cc(-c4cc(C(F)(F)F)ccc4C)nn3[C@@H](C)c3ccc(C(=O)NCCC(=O)O)cc3)ccc2c1
3. COc1ccc2cc(-c3cc(-c4cc(Cl)cc(Cl)c4)nn3[C@@H](C)c3ccc(C(=O)NCCC(=O)O)cc3)ccc2c1
4. COc1ccc2cc(-c3cc(-c4cc(Cl)ccc4Cl)nn3[C@@H](C)c3ccc(C(=O)NCCC(=O)O)cc3)ccc2c1
5. C[C@@H](c1ccc(C(=O)NCCC(=O)O)cc1)n1nc(-c2cc(Cl)cc(Cl)c2)cc1-c1ccc2cc(C(F)(F)F)ccc2c1
6. O=C(O)CCNC(=O)c1ccc(Cn2nc(-c3cc(Cl)cc(Cl)c3)cc2-c2ccc3c(OC(F)(F)F)cccc3c2)cc1

Given back:
1. 3.38
2. 3.23
3. 3.01
4. 3.26
5. 2.58
6. 3.30

---

- TEST DETAILS: Cmax in rat at <= […] mg/kg/day
- Assay type: ADME, organism-based
- CONDITION NOTES: in vivo, 100 mg/kg
MEASUREMENT NAME: Cmax (µM)
One number for each entry, in µM.

Memo: `COc1ccc2cc(-c3cc(-c4cc(Cl)cc(Cl)c4)nn3[C@@H](C)c3ccc(C(=O)NCCC(=O)O)cc3)ccc2c1` , reported Cmax: 21.3

---

- TARGET OR TEST SYSTEM: Cytochrome P450 2B6 (Homo sapiens)
- Sequence (P20813 whole entry): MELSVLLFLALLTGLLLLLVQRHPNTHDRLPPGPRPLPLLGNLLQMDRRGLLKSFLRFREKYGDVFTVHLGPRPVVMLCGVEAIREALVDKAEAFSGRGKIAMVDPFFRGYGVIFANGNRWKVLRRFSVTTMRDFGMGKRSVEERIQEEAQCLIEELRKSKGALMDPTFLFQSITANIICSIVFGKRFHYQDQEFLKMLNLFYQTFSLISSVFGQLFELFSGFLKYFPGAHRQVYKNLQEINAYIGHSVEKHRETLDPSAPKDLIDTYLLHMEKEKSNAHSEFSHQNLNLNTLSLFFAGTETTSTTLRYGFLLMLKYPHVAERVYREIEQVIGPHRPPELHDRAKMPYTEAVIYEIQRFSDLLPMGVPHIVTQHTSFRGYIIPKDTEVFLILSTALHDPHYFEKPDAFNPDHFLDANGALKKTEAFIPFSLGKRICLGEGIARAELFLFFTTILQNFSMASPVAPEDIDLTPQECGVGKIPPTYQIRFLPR
MEASUREMENT NAME: pIC50
Answers are plain numbers, as −log10 of the molar value.

Entry COc1ccc2cc(-c3cc(-c4cc(Cl)cc(Cl)c4)nn3[C@@H](C)c3ccc(C(=O)NCCC(=O)O)cc3)ccc2c1 [MK-0893] — recorded pIC50 = 4.64

---

- TARGET OR TEST SYSTEM: Glucagon receptor (Homo sapiens, UniProt P47871)
- Sequence (P47871 whole entry): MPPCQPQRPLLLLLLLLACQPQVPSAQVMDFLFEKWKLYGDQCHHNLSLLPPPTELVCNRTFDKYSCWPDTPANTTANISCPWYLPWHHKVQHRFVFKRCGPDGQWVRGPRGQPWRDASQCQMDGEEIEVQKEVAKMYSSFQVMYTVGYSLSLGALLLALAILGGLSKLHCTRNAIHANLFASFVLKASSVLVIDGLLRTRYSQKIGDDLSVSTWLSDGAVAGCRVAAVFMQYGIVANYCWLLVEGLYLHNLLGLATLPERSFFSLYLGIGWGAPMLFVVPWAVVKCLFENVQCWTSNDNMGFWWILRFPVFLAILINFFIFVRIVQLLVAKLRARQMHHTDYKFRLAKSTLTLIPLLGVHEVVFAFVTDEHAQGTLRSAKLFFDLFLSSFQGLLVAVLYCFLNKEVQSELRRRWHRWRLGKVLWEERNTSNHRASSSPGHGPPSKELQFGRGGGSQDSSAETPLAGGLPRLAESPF
- TEST DETAILS: Antagonist activity at human GCGR expressed in CHO cells assessed as inhibition of glucagon-induced cAMP accumulation preincubated for 30 mins prior to glucagon challenge measured after 30 mins post glucagon challenge by liquid scintillation counter
- Type: functional, cell-based
I'd appreciate it if you could supply log10 IC50 values for the items below.
log10 IC50, nM

COc1ccc2cc(-c3cc(-c4cc(Cl)ccc4Cl)nn3[C@@H](C)c3ccc(C(=O)NCCC(=O)O)cc3)ccc2c1 | 1.06
O=C(O)CCNC(=O)c1ccc(Cn2nc(-c3cc(Cl)cc(Cl)c3)cc2-c2ccc3cccc(OC(F)(F)F)c3c2)cc1 | 2.38
O=C(O)CCNC(=O)c1ccc(Cn2nc(-c3cc(Cl)cc(Cl)c3)cc2-c2ccc3ccc(OC(F)(F)F)cc3c2)cc1 | 2.28
C[C@@H](c1ccc(C(=O)NCCC(=O)O)cc1)n1nc(-c2cc(Cl)cc(Cl)c2)cc1-c1ccc2cc(OC(F)(F)F)ccc2c1 | 1.08

Please give log10 IC50, item by item, for the list that follows.
1. O=C(O)CCNC(=O)c1ccc(Cn2nc(-c3cc(Cl)cc(Cl)c3)cc2-c2ccc(OC(F)(F)F)cc2)cc1
2. CCCOc1ccc(-c2cc(-c3cc(Cl)cc(Cl)c3)nn2C(C)c2ccc(C(=O)NCCC(=O)O)cc2)cc1Cl (configuration not stated)
3. CCCOc1cc(Cl)cc(-c2cc(-c3ccc4cc(OC)ccc4c3)n([C@@H](C)c3ccc(C(=O)NCCC(=O)O)cc3)n2)c1

Given back:
1. 2.06
2. 1.81
3. 1.67

---

Please provide measured pIC50 for the entries that follow.
- TARGET OR TEST SYSTEM: Gastric inhibitory polypeptide receptor (Homo sapiens)
- TEST DETAILS: Antagonist activity at human GIPR expressed in CHO cells assessed as inhibition of glucagon-induced cAMP accumulation preincubated for 30 mins prior to glucagon challenge measured after 30 mins post glucagon challenge by liquid scintillation counter
Give bare numbers, as −log10 of the molar value.

Past entries and their recorded results:
C[C@@H](c1ccc(C(=O)NCCC(=O)O)cc1)n1nc(-c2cc(Cl)cc(Cl)c2)cc1-c1ccc2cc(OC(F)(F)F)ccc2c1 | 6.51
CCCOc1cc(Cl)cc(-c2cc(-c3ccc4cc(OC)ccc4c3)n([C@@H](C)c3ccc(C(=O)NCCC(=O)O)cc3)n2)c1 | 5.69
COc1cc(Cl)cc(-c2cc(-c3ccc4cc(OC)ccc4c3)n([C@@H](C)c3ccc(C(=O)NCCC(=O)O)cc3)n2)c1 | 5.30

Answer for every listed entry: what is its pIC50? The entries follow.
1. C[C@@H](c1ccc(C(=O)NCCC(=O)O)cc1)n1nc(-c2cc(Cl)cc(Cl)c2)cc1-c1ccc2cc(Cl)ccc2c1
2. O=C(O)CCNC(=O)c1ccc(Cn2nc(-c3cc(Cl)cc(Cl)c3)cc2-c2ccc3ccccc3c2)cc1
3. CCCOc1ccc(-c2cc(-c3cc(Cl)cc(Cl)c3)nn2Cc2ccc(C(=O)NCCC(=O)O)cc2)cc1Cl

Given back:
[6.10, 5.36, 5.47]
